Molecular target: H1 (Cavia porcellus)
Sequence (P31389 whole entry): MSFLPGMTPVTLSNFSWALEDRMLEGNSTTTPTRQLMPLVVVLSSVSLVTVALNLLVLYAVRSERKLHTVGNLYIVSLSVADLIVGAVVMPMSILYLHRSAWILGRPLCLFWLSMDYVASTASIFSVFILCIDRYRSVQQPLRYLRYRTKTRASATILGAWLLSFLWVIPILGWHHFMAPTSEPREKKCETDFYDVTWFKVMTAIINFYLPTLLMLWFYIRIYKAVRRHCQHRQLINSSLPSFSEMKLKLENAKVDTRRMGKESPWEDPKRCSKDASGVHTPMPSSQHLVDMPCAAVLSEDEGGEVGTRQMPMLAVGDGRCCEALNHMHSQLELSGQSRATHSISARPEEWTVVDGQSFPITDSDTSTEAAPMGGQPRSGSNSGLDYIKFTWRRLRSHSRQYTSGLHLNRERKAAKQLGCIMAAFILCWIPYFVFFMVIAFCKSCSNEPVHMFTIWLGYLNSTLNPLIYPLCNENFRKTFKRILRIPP
Test: H1-antihistaminic activity in vitro: histamine-induced contractions of isolated guinea-pig ileum
Details: pH 7.4, 37° C., 20 min after antagonist, (n) given
Each entry below lists one item and its recorded pD'2 value.
Number only, no unit.

{"Input smiles": "CC(C)OCCn1c(C2CCN(CCc3ccc(C(C)(C)C)cc3)CC2)nc2ccccc21", "Assay target": "H1 (Cavia porcellus)", "pD'2": 7.00}
{"Input smiles": "COCCn1c(C2CCN(Cc3ccc(C(C)(C)C)cc3)CC2)nc2ccccc21", "Assay target": "H1 (Cavia porcellus)", "pD'2": 6.75}
{"Input smiles": "CCOCCn1c(C2CCN(CCc3ccc(C(C)(C)C)cc3)CC2)nc2ccccc21", "Assay target": "H1 (Cavia porcellus)", "pD'2": 7.52}
{"Input smiles": "CC(C)OCCn1c(C2CCN(Cc3ccc(C(C)(C)C)cc3)CC2)nc2ccccc21", "Assay target": "H1 (Cavia porcellus)", "pD'2": 7.30}

Problem: I'm curious: which pD'2 was measured for CCOCCn1c(C2CCN(Cc3ccc(C(C)(C)C)cc3)CC2)nc2ccccc21 tested on H1 (Cavia porcellus)?
Solution: 7.08

====

Tested on: CNS
Test: Preliminary study similar to Irwin's test in mice: effect on CNS
Type: in vivo
Settings: 300 mg/kg, 1, 2, 3, 4 and 24 hours
Readout label: Hypothermia

{"Molecule": "CN1CCC(=C2c3ccccc3CC(=O)c3sccc32)CC1 [Ketotifene, reference compound]", "Hypothermia": "1/4"}
{"Molecule": "COCCn1c(C2CCN(Cc3ccc(C(C)(C)C)cc3)CC2)nc2ccccc21", "Hypothermia": "4/4"}
{"Molecule": "CCOCCn1c(C2CCN(CCc3ccc(C(C)(C)C)cc3)CC2)nc2ccccc21", "Hypothermia": "--"}
{"Molecule": "CC(C)OCCn1c(C2CCN(Cc3ccc(C(C)(C)C)cc3)CC2)nc2ccccc21", "Hypothermia": "--"}

Continue with the next molecule.
Problem: API: value(readout=Hypothermia, system=CNS) for record CCOCCn1c(C2CCN(Cc3ccc(C(C)(C)C)cc3)CC2)nc2ccccc21
Solution: --

====

Test system: CNS
Experiment: Preliminary study similar to Irwin's test in mice: effect on CNS
Assay type: in vivo
Settings: 300 mg/kg, 1, 2, 3, 4 and 24 hours
Readout label: Loss of right-time reflex

Examples from the recorded data:
{"Compound": "CN1CCC(=C2c3ccccc3CC(=O)c3sccc32)CC1 [Ketotifene, reference compound]", "Assay target": "CNS", "Loss of right-time reflex": "1/4"}
{"Compound": "CCOCCn1c(C2CCN(Cc3ccc(C(C)(C)C)cc3)CC2)nc2ccccc21 [1 CH2 CH3]", "Assay target": "CNS", "Loss of right-time reflex": "--"}
{"Compound": "CCOCCn1c(C2CCN(CCc3ccc(C(C)(C)C)cc3)CC2)nc2ccccc21 [2 CH2 CH3]", "Assay target": "CNS", "Loss of right-time reflex": "--"}
{"Compound": "COCCn1c(C2CCN(Cc3ccc(C(C)(C)C)cc3)CC2)nc2ccccc21 [1 CH3]", "Assay target": "CNS", "Loss of right-time reflex": "4/4"}

In the following, a different compound is considered.
Problem: Can you look up Loss of right-time reflex on CNS for CC(C)OCCn1c(C2CCN(Cc3ccc(C(C)(C)C)cc3)CC2)nc2ccccc21 [1 CH(CH3)2] ?
Solution: --

====

Tested on: CNS
Assay: Preliminary study similar to Irwin's test in mice: effect on CNS
Format: in vivo
Design: key: --: If no effects were detected, no figures are shown
Conditions: 300 mg/kg, 1, 2, 3, 4 and 24 hours
Method: A preliminary study similar to Irwins's test in mice was carried out at doses of 100 and 300 mg/kg at 1, 2, 3, 4 and 24 hours after the treatment. As reference ketotifene was used.
Readout label: Palpebral Ptosis

{"Compound": "CC(C)OCCn1c(C2CCN(Cc3ccc(C(C)(C)C)cc3)CC2)nc2ccccc21", "Assay target": "CNS", "Measured": "--"}
{"Compound": "CN1CCC(=C2c3ccccc3CC(=O)c3sccc32)CC1 [Ketotifene, reference compound]", "Assay target": "CNS", "Measured": "1/4"}
{"Compound": "COCCn1c(C2CCN(Cc3ccc(C(C)(C)C)cc3)CC2)nc2ccccc21", "Assay target": "CNS", "Measured": "4/4"}
{"Compound": "CCOCCn1c(C2CCN(CCc3ccc(C(C)(C)C)cc3)CC2)nc2ccccc21", "Assay target": "CNS", "Measured": "--"}

Please examine the following record next.
Problem: Could you share which Palpebral Ptosis value was measured for CCOCCn1c(C2CCN(Cc3ccc(C(C)(C)C)cc3)CC2)nc2ccccc21 ?
Solution: --

====

Tested on: CNS
Test: Preliminary study similar to Irwin's test in mice: effect on CNS
Assay type: in vivo
Conditions: 300 mg/kg, 1, 2, 3, 4 and 24 hours

{"Compound": "CCOCCn1c(C2CCN(Cc3ccc(C(C)(C)C)cc3)CC2)nc2ccccc21", "Spontaneous Activity decrease": "4/4"}
{"Compound": "COCCn1c(C2CCN(Cc3ccc(C(C)(C)C)cc3)CC2)nc2ccccc21", "Spontaneous Activity decrease": "4/4"}
{"Compound": "CC(C)OCCn1c(C2CCN(Cc3ccc(C(C)(C)C)cc3)CC2)nc2ccccc21", "Spontaneous Activity decrease": "--"}
{"Compound": "CN1CCC(=C2c3ccccc3CC(=O)c3sccc32)CC1 [Ketotifene, reference compound]", "Spontaneous Activity decrease": "2/4"}

====

Tested on: CNS
Experiment: Preliminary study similar to Irwin's test in mice: effect on CNS
Assay type: in vivo
Conditions: 300 mg/kg, 1, 2, 3, 4 and 24 hours
Readout label: Loss of pinneal reflex

Take a look at these entries with their results.
{"Molecule": "COCCn1c(C2CCN(Cc3ccc(C(C)(C)C)cc3)CC2)nc2ccccc21 [1 CH3]", "Loss of pinneal reflex": "4/4"}
{"Molecule": "CC(C)OCCn1c(C2CCN(Cc3ccc(C(C)(C)C)cc3)CC2)nc2ccccc21 [1 CH(CH3)2]", "Loss of pinneal reflex": "--"}
{"Molecule": "CCOCCn1c(C2CCN(CCc3ccc(C(C)(C)C)cc3)CC2)nc2ccccc21 [2 CH2 CH3]", "Loss of pinneal reflex": "--"}
{"Molecule": "CCOCCn1c(C2CCN(Cc3ccc(C(C)(C)C)cc3)CC2)nc2ccccc21 [1 CH2 CH3]", "Loss of pinneal reflex": "--"}

Problem: Write down the reported Loss of pinneal reflex of CN1CCC(=C2c3ccccc3CC(=O)c3sccc32)CC1 [Ketotifene, reference compound] , test system: CNS.
Solution: --

====

Test system: CNS
Experiment: Preliminary study similar to Irwin's test in mice: effect on CNS
Type: in vivo
Design: key: --: If no effects were detected, no figures are shown
Settings: 100 mg/kg, 1, 2, 3, 4 and 24 hours
Readout label: Hypothermia

Answered cases to consult:
{"Compound": "CCOCCn1c(C2CCN(CCc3ccc(C(C)(C)C)cc3)CC2)nc2ccccc21 [2 CH2 CH3]", "Hypothermia": "--"}
{"Compound": "COCCn1c(C2CCN(Cc3ccc(C(C)(C)C)cc3)CC2)nc2ccccc21 [1 CH3]", "Hypothermia": "2/4"}
{"Compound": "CC(C)OCCn1c(C2CCN(Cc3ccc(C(C)(C)C)cc3)CC2)nc2ccccc21 [1 CH(CH3)2]", "Hypothermia": "--"}
{"Compound": "CCOCCn1c(C2CCN(Cc3ccc(C(C)(C)C)cc3)CC2)nc2ccccc21 [1 CH2 CH3]", "Hypothermia": "--"}

Problem: Param readout= Hypothermia; system= CNS; entry= CN1CCC(=C2c3ccccc3CC(=O)c3sccc32)CC1 [Ketotifene, reference compound] ; returns value.
Solution: --

====

System: CNS
Assay: Preliminary study similar to Irwin's test in mice: effect on CNS
Assay type: in vivo
Set-up: key: --: If no effects were detected, no figures are shown
Details: 300 mg/kg, 1, 2, 3, 4 and 24 hours
Protocol: A preliminary study similar to Irwins's test in mice was carried out at doses of 100 and 300 mg/kg at 1, 2, 3, 4 and 24 hours after the treatment. As reference ketotifene was used.
Readout label: Death

Completed entries (count: 4):
{"Compound": "CN1CCC(=C2c3ccccc3CC(=O)c3sccc32)CC1 [Ketotifene, reference compound]", "Assay target": "CNS", "Death": "--"}
{"Compound": "CCOCCn1c(C2CCN(CCc3ccc(C(C)(C)C)cc3)CC2)nc2ccccc21", "Assay target": "CNS", "Death": "--"}
{"Compound": "COCCn1c(C2CCN(Cc3ccc(C(C)(C)C)cc3)CC2)nc2ccccc21", "Assay target": "CNS", "Death": "4/4"}
{"Compound": "CC(C)OCCn1c(C2CCN(Cc3ccc(C(C)(C)C)cc3)CC2)nc2ccccc21", "Assay target": "CNS", "Death": "--"}

Then there is this compound:
Problem: Can you look up the measured Death of CCOCCn1c(C2CCN(Cc3ccc(C(C)(C)C)cc3)CC2)nc2ccccc21 for me?
Solution: --

Origin of the recorded values: patent US5322850A
